# System: PPARg:RXRa 30nM:10nM, anti-RXR (NR concentration 30 nM, RXRa partner concentration 10 nM)
# assay-procedure: PBM binding z-score (relative to random genomic background probes); higher = stronger binding; sequences stand for … in GC…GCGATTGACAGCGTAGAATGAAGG
Use 2 as the dividing line for PBM binding z-score, with the line itself on the 1.0 side and lower values as 0.0.

Determine whether this sequence has PBM binding z-score no lower than 2: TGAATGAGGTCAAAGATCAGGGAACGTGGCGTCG
1.0

Determine whether this sequence has PBM binding z-score no lower than 2: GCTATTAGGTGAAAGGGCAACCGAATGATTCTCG
1.0

Determine whether this sequence has PBM binding z-score no lower than 2: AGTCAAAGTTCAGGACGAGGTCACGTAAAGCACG
1.0

Determine whether this sequence has PBM binding z-score no lower than 2: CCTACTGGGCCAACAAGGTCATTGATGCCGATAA
0.0

Determine whether this sequence has PBM binding z-score no lower than 2: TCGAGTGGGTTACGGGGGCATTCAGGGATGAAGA
1.0

Determine whether this sequence has PBM binding z-score no lower than 2: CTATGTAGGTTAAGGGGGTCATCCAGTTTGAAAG
1.0

Determine whether this sequence has PBM binding z-score no lower than 2: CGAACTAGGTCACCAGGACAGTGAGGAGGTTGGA
1.0

Determine whether this sequence has PBM binding z-score no lower than 2: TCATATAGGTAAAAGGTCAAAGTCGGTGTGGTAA
1.0

Determine whether this sequence has PBM binding z-score no lower than 2: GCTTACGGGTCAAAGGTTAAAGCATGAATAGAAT
1.0

Determine whether this sequence has PBM binding z-score no lower than 2: CTATGTAGGTTAAGGGGGTCACTCAGTTTGAAAG
1.0

Determine whether this sequence has PBM binding z-score no lower than 2: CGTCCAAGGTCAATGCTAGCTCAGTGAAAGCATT
0.0

Determine whether this sequence has PBM binding z-score no lower than 2: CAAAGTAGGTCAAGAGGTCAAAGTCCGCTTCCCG
1.0

Determine whether this sequence has PBM binding z-score no lower than 2: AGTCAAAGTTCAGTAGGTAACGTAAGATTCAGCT
1.0

Determine whether this sequence has PBM binding z-score no lower than 2: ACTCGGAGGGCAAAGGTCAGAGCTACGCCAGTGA
1.0

Determine whether this sequence has PBM binding z-score no lower than 2: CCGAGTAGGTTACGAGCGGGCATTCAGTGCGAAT
0.0

Determine whether this sequence has PBM binding z-score no lower than 2: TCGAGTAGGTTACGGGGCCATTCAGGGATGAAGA
0.0

Determine whether this sequence has PBM binding z-score no lower than 2: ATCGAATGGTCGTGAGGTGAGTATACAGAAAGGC
0.0

Determine whether this sequence has PBM binding z-score no lower than 2: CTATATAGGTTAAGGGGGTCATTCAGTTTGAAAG
1.0

Determine whether this sequence has PBM binding z-score no lower than 2: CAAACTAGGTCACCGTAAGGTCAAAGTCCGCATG
1.0

Determine whether this sequence has PBM binding z-score no lower than 2: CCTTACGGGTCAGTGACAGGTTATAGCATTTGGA
0.0

Determine whether this sequence has PBM binding z-score no lower than 2: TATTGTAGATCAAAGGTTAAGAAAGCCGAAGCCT
1.0

Determine whether this sequence has PBM binding z-score no lower than 2: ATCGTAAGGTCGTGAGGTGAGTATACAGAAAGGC
0.0

Determine whether this sequence has PBM binding z-score no lower than 2: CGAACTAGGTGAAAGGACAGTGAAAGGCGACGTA
1.0

Determine whether this sequence has PBM binding z-score no lower than 2: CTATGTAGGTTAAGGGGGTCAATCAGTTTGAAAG
1.0

Determine whether this sequence has PBM binding z-score no lower than 2: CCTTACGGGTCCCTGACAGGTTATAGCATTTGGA
0.0
